Tested on: NCI-H226
Assay: NCI tumour cell line growth inhibition, 48 h
Active and inactive are the calls of the source. No stated cut-off is given here; in the data, active = GI50 up to about 1.1 µM and inactive = higher.
observable: GI50

Solved entries (count: 2):
O=C(O)c1c2c(cc3c1CC1(Cc4cc5c(cc4C1=O)CCC5)C3)CCC2 (stereo not drawn) ... > 100 µM (inactive)
COc1ccc(-c2onc(-c3c(C)cc(C)cc3C)c2C2=NCCN2)cc1 ... 17.8 µM (inactive)

Short answer please: GI50, NCI-H226, entry "COc1cc(C(=O)O)ccc1OS(=O)(=O)O"
> 100 µM (inactive)

* * *

System: M14
Experiment: NCI tumour cell line growth inhibition, 48 h
The source made the active and inactive calls. No stated cut-off is given here; in the data, active = GI50 up to about 1.1 µM and inactive = higher.
observable: GI50

COC(=O)[C@]1(C)CCC[C@@]2(C)[C@@H]3C[C@@H]4[C@H]5C[C@@]3(CC[C@@H]21)C[C@@]45C ... 20.7 µM (inactive)
CNc1ccc2nc(-c3ccc(OC(=O)N(C)C)cc3)cn2c1 ... 19.2 µM (inactive)
C/C(=N\N=C(/S)N(C)C)c1cccc[n+]1[O-] ... 25.9 µM (inactive)
COC(=O)C1=C(O)C(C(=O)OC)[C@@]2(O)[C@@H](C(=O)OC)[C@H](C)[C@@H](C)[C@@H]1[C@@H]2C(=O)OC (some centres not stated) ... 67.5 µM (inactive)
O=C(O)CC(C(=O)O)C1c2ccccc2-c2ccccc21 (configuration not stated) ... > 100 µM (inactive)

Which GI50 value is on record for "COC(=O)[C@]12CSC[C@H]1C[C@H](c1ccccc1OC)N2" ?
> 100 µM (inactive)

Similarly, "Cc1ccc(C(=O)N/N=C(\N=N\c2cccc(C)c2)c2ccc(N(CCC#N)CCC#N)cc2C)cc1" ?
89.5 µM (inactive)

Similarly, "Cc1cc(C)nc(NS(=O)(=O)c2ccc(NC(=O)c3cccc4c(NNc5ccc(S(=O)(=O)N=C(N)N)cc5)c5ccccc5nc34)cc2)n1" ?
> 50 µM (inactive)

Similarly, "COC(=O)C1=CC(=O)[C@@H]2CCCC[C@H]12" ?
> 100 µM (inactive)

Similarly, "O=C(O)/C=C/c1ccc(OS(=O)(=O)O)cc1" ?
> 100 µM (inactive)

* * *

Test system: 786-0
Experiment: NCI tumour cell line growth inhibition, 48 h
The source made the active and inactive calls. Rule as the data show it: active = GI50 up to about 1.1 µM and inactive = higher.
observable: GI50

CCOP1(=O)CC(C)=C(Cl)C(OC)C1 (stereo unspecified) ... > 100 µM (inactive)
CCOC(C)O[C@H]1C(=O)OCC1(C)C (stereo partly specified) ... > 100 µM (inactive)
O=C(c1cc(Cl)cc(Cl)c1)N(Cc1cccnc1)C(=S)N(Cc1cccnc1)C(=O)c1cc(Cl)cc(Cl)c1 ... 17.3 µM (inactive)

Which GI50 value is on record for "O=C(c1ccc(Cl)cc1)c1ccc(OCCCOc2ccc(C(=O)c3ccc(Cl)cc3)cc2Cl)c(Cl)c1" ?
> 100 µM (inactive)

Similarly, "Cc1cn2c(/C=C3/C(=O)Nc4ccccc43)c(C)nc2s1" ?
3.82 µM (inactive)

Similarly, "CC1=C(C(=O)NNC(=O)C[N+](C)(C)C)CC(C(=O)NNC(=O)C[N+](C)(C)C)=C(C)N1" ?
> 100 µM (inactive)

Similarly, "Cn1c(=O)c2nc(SCc3ccccn3)[nH]c2n(C)c1=S" ?
67.5 µM (inactive)

Similarly, "Cc1cc(C)c2c(n1)S(=O)(=O)N(CCCN1CCN(c3cccc(C(F)(F)F)c3)CC1)c1c-2nn(C)c1C" ?
> 100 µM (inactive)

Similarly, OC(CN(CCCl)CCCl)C(O)C(O)C(O)CN(CCCl)CCCl (stereo unspecified) ?
91 µM (inactive)

Similarly, "O=[N+]([O-])c1ccc(S(=O)(=O)Cc2ccccc2)c2nonc12" ?
19.6 µM (inactive)

Similarly, "CC(C)OP(=O)(OC(C)C)C(C(F)(F)F)C(F)(F)F" ?
> 100 µM (inactive)
